Data origin: patent US10125112B2

molecular target: RXFP1 (Homo sapiens); construct: expressed in transfected cells; assay: RXFP1 cAMP assay in HEK293-RXFP1 cells (HTRF); assay type: cell-based; conditions: read-out: Max Response
Catalogue of compounds with associated Emax
Just the number plus its unit, please.

COc1ccccc1C(=O)Nc1ccccc1C(=O)Nc1cccc(S(=O)(=O)C(F)(F)F)c1: 99%
CC(=O)Nc1ccccc1C(=O)Nc1cccc(C(F)(F)F)c1: 51%
O=C(Nc1cccc(S(=O)(=O)C(F)(F)F)c1)c1ccccc1NC(=O)c1ccccc1OCC(F)(F)F: 97%

INPUT: What Emax value was documented for this compound, `CCCCOc1ccccc1C(=O)Nc1ccccc1C(=O)Nc1cccc(S(=O)(=O)C(F)(F)F)c1` ?
OUTPUT: 98%

* * *

biological target: RXFP1 (Homo sapiens); construct: expressed in transfected cells; experiment: RXFP1 cAMP assay in HEK293-RXFP1 cells (HTRF); format: cell-based; details: read-out: RXFP1 AC50 (μM, Max. Resp.): Max. Resp.
Catalogue of compounds with associated Emax
Dear colleague, please return just the value in %, with no unit written.

Some compounds with known Emax results, for comparison:
CCCCOc1ccccc1C(=O)Nc1ccccc1C(=O)Nc1cccc(S(=O)(=O)C(F)(F)F)c1 [Example 180]: 98
CCOc1ccccc1C(=O)Nc1ccccc1C(=O)Nc1cccc(C(F)(F)F)c1 [Example 99]: 95
O=C(Nc1cccc(S(=O)(=O)C(F)(F)F)c1)c1ccccc1NC(=O)c1ccccc1OCC(F)(F)F [Example 177]: 97

Now let's try a different one.
INPUT: What Emax value was documented for this compound, COc1ccccc1C(=O)Nc1ccccc1C(=O)Nc1cccc(S(=O)(=O)C(F)(F)F)c1 [Example 159] ?
OUTPUT: 99

* * *

Catalogue of compounds with associated solubility
experiment: PBS solubility; type: physicochemical; details: aqueous buffer
Dear colleague, please return just the value in µM, with no unit written.

COc1ccccc1C(=O)Nc1ccccc1C(=O)Nc1cccc(SC(F)(F)F)c1: 2.9

Now let's try a different one.
INPUT: What solubility value was documented for this compound, `CCOc1ccccc1C(=O)Nc1ccccc1C(=O)Nc1cccc(C(F)(F)F)c1` ?
OUTPUT: 1.7

* * *

Target: RXFP1 (Homo sapiens, UniProt Q9HBX9)
Construct: expressed in transfected cells
Sequence (Q9HBX9 1-757): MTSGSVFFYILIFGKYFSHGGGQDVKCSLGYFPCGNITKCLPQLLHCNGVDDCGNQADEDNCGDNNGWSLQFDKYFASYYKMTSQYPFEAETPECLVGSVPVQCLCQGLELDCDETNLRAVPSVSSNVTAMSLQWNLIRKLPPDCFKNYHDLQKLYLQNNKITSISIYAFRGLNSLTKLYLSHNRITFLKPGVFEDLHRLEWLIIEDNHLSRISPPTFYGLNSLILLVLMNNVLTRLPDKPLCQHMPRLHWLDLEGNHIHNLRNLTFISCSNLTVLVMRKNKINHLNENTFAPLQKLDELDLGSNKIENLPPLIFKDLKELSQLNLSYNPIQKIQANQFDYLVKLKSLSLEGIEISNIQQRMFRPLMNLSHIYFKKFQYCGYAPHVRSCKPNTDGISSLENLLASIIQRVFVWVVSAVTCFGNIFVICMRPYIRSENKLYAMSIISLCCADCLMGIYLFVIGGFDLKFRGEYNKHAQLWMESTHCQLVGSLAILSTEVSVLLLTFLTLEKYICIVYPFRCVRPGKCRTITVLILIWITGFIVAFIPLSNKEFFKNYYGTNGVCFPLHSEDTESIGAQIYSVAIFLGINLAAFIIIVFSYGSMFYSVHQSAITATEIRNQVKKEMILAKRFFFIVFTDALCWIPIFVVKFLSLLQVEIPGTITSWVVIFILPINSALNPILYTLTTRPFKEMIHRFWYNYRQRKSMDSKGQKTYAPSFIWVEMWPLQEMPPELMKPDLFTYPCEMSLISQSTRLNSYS
Assay: RXFP1 cAMP assay in HEK293-RXFP1 cells (HTRF)
Type: cell-based
Conditions: percentage of the maximal receptor activation induced by high concentrations of forskolin; Tables 1-7; read-out: Max Response
valueType: Emax
Just the number plus its unit, please.

Some compounds with known Emax results, for comparison:
CCOc1ccccc1C(=O)Nc1ccccc1C(=O)Nc1cncc(I)c1: 72%
O=C(Nc1cccc(C(F)(F)F)c1)c1ccccc1NC(=O)c1ccccc1C(F)(F)F: 70%

Now let's try a different one.
INPUT: I'm curious: which Emax was measured for `C/C=C\c1cccc(NC(=O)c2ccccc2NC(=O)c2ccccc2OCC)c1` tested on RXFP1 (Homo sapiens, UniProt Q9HBX9)?
OUTPUT: 91%
